assay-name: chemical genetic growth profiling, strain panel (AID 1159580);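 also: tested at 20 µM; growth read once vehicle control cultures reached saturation at 30 °C; 1 = growth at the plate median or of vehicle wells; lower values mean less growth of the strain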
settings: S. cerevisiae deletion strains, growth OD, locus YKL193C, strain SDS22, stronger effect = lower value
Among all 5,500 compounds or so, about 2,000 (36%) were called active. Roughly 18% stayed inconclusive and do not appear here. This is one part of the list.
property: normalized growth
// print number alone

Give me measured normalized growth, please, for this compound: "COc1ccccc1NC(=S)N/N=C\c1ccccc1O"
0.964

Give me measured normalized growth, please, for this compound: "CN(C)C=Nc1nnc(Sc2nc3c(Cl)cc(Cl)cc3s2)s1"
0.968

Give me measured normalized growth, please, for this compound: "O=S(=O)(CS(=O)(=O)Oc1ccc(Cl)c(Cl)c1)Oc1ccc(Cl)c(Cl)c1"
0.944

Give me measured normalized growth, please, for this compound: "O=C1C(Cl)=C(Oc2cc(Cl)c(Cl)cc2Cl)C(=O)c2ccccc21"
0.174

Give me measured normalized growth, please, for this compound: "CC(C)(C)NC(=S)N/N=C\c1ccccc1O"
0.951

Give me measured normalized growth, please, for this compound: OC1(C(F)(F)F)CC(c2ccc3ccccc3c2)=NN1 (stereo unspecified)
0.161

Give me measured normalized growth, please, for this compound: "O/N=C(/c1ccc(Cl)cc1)c1cc2ccccc2o1"
0.93

Give me measured normalized growth, please, for this compound: "O=C1Nc2ccccc2/C1=C/c1ccc(Oc2ccccc2)nc1"
0.959

Give me measured normalized growth, please, for this compound: "Oc1c(Cl)cc(Cl)cc1/C=N\NC(=S)Nc1cc(C(F)(F)F)cc(C(F)(F)F)c1"
0.858

Give me measured normalized growth, please, for this compound: "CCNC(=S)N/N=C\c1cc(Cl)cc(Cl)c1O"
0.908

Give me measured normalized growth, please, for this compound: "COc1ccc(/C=C2/C(=O)Nc3ccccc32)cc1"
0.877
